# Tested on: Liver
# assay protocol: Antioxidant activity in rat heat-inactivated rat hepatic microsomes assessed as inhibition of TBAR level incubated for 45 mins by spectrophotometry
# Format: functional
# particulars: 0.75 h
pIC50: −log10 of the molar value.
experimental readout: pIC50

[[record]]
compound = "CN1CCOC(O)(c2ccc3c(ccc4ccccc43)c2)C1 (stereo unspecified)"
readout_value = 3.76

[[record]]
compound = "CN1CC(O)(c2ccc(-c3ccc([N+](=O)[O-])cc3)cc2)OC2CCCCC21 (stereo unspecified)"
readout_value = 4.24

[[record]]
compound = "OC1(c2ccc(C3CCCCC3)cc2)CN2CCCCC2CO1 (stereo unspecified)"
readout_value = 3.15

[[record]]
compound = "CN1CCOC(O)(c2ccc(C3CCCCC3)cc2)C1 (stereo unspecified)"
readout_value = 3.72

[[record]]
compound = "CN1CC(O)(c2ccc(-c3ccc(O)cc3)cc2)OC2CCCCC21 (stereo unspecified)"
readout_value = 3.87

[[record]]
compound = "CN1CC(O)(c2ccc(-c3ccc(C(C)(C)C)cc3)cc2)OC2CCCCC21 (stereo unspecified)"
readout_value = 3.67

